target: 5-hydroxytryptamine receptor 2A (Homo sapiens); experiment: Agonist activity at human 5HT2A receptor stably expressed in Flp-In-T-REx-293 cells assessed as increase in Gq-mediated calcium flux by Fluo-4 direct dye based FLIPR Tetra assay
Sequence (P28223 whole entry): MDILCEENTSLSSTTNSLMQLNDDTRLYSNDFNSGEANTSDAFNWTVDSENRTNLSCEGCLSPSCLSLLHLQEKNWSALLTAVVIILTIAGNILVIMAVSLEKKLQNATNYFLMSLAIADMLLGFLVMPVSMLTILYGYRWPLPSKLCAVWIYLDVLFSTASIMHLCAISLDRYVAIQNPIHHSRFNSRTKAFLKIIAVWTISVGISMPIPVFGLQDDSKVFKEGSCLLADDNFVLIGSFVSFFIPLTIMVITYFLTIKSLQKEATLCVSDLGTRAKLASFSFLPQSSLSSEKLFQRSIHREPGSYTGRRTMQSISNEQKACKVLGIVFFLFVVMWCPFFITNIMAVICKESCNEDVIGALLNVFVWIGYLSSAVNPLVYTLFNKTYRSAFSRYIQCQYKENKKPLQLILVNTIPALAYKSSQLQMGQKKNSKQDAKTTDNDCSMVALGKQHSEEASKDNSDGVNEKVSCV
pEC50: −log10 of the molar value.
Measurement label: pEC50

Recorded pEC50, per entry:
>  <Molecule>
Cc1ccc(C2NCCc3c2[nH]c2ccc(Cl)cc32)cc1 (stereo not given)

>  <Measurement target>
5-hydroxytryptamine receptor 2A (Homo sapiens)

>  <pEC50>
6.52

$$$$
>  <Molecule>
Fc1ccc2[nH]c3c(c2c1)CCNC3c1ccccc1 (stereo not given)

>  <Measurement target>
5-hydroxytryptamine receptor 2A (Homo sapiens)

>  <pEC50>
7.05

$$$$
>  <Molecule>
Oc1ccccc1C1NCCc2c1[nH]c1ccc(F)cc21 (stereo not given)

>  <Measurement target>
5-hydroxytryptamine receptor 2A (Homo sapiens)

>  <pEC50>
7.59

$$$$
>  <Molecule>
Fc1ccc2[nH]c3c(c2c1)CCNC3CCc1ccccc1 (stereo not given)

>  <Measurement target>
5-hydroxytryptamine receptor 2A (Homo sapiens)

>  <pEC50>
6.09

$$$$
>  <Molecule>
Oc1cc(Cl)ccc1C1NCCc2c1[nH]c1ccc(Cl)cc21 (stereo not given)

>  <Measurement target>
5-hydroxytryptamine receptor 2A (Homo sapiens)

>  <pEC50>
7.28

$$$$

[P] Fc1ccccc1C1NCCc2c1[nH]c1ccc(Cl)cc21 (stereo not given)
[Q] Oc1c(Br)cccc1C1NCCc2c1[nH]c1ccc(F)cc21 (stereo not given)
In terms of reported pEC50, does P or Q have the smaller number? Refer to your chosen entry by its label in the reply.
P

[I] Oc1ccc(Br)cc1C1NCCc2c1[nH]c1ccc(Cl)cc21 (stereo not given)
[II] Oc1cccc(C2NCCc3c2[nH]c2ccc(F)cc32)c1 (stereo not given)
[III] Clc1ccc2[nH]c3c(c2c1)CCNC3C(c1ccccc1)c1ccccc1 (stereo not given)
[IV] Oc1ccc2[nH]c3c(c2c1)CCNC3c1cccs1 (stereo not given)
[V] Oc1ccc2[nH]c3c(c2c1)CCNC3c1ccccc1C(F)(F)F (stereo not given)
Ascending by pEC50, please. The labels, placed in the requested order, form the answer.
III, I, IV, II, V
(III: 5.87, I: 6.09, IV: 6.46, II: 6.68, V: 6.92)

[A] Clc1ccc2[nH]c3c(c2c1)CCNC3c1ccc(Br)s1 (stereo not given)
[B] Oc1cc(Br)ccc1C1NCCc2c1[nH]c1ccc(F)cc21 (stereo not given)
[C] Cc1noc(C)c1C1NCCc2c1[nH]c1ccc(F)cc21 (stereo not given)
[D] COc1cc(OC)c(C2NCCc3c2[nH]c2ccc(F)cc32)cc1OC (stereo not given)
[E] Oc1ccc(O)c(C2NCCc3c2[nH]c2ccc(F)cc32)c1 (stereo not given)
Rank descending by pEC50. The labels, placed in the requested order, form the answer.
D, E, B, C, A
(D: 7.41, E: 7.14, B: 6.83, C: 6.62, A: 6.04)

[A] Clc1ccc2[nH]c3c(c2c1)CCNC3c1ccncc1Cl (stereo not given)
[B] Cc1ccc(C2NCCc3c2[nH]c2ccc(F)cc32)cc1 (stereo not given)
[C] Fc1ccc2[nH]c3c(c2c1)CCNC3c1ccccc1Br (stereo not given)
Ascending by pEC50, please. The labels, placed in the requested order, form the answer.
A, B, C
(A: 6.07, B: 6.68, C: 7.01)
